- tested target: T1, 4H2586-bN
- T1 chain: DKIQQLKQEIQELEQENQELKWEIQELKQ
- test: two-hybrid library CCNG1;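 also: natural log of median RNA to DNA barcode read ratio; higher means stronger binding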
Labelling: interaction score reported below -0.5 becomes YES; at or above becomes NO.

Query: Find out if reported interaction score for DEIQQLEQENQELEQKIQELKWEIQELKQ [4H170-bN] is less than -0.5
Reply: YES

Query: Find out if reported interaction score for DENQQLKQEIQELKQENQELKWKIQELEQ [4H1629-bN] is less than -0.5
Reply: YES

Query: Find out if reported interaction score for DENQQLEQENQELEQEIQELEWKIQELKQ [4H1158-bN] is less than -0.5
Reply: NO

Query: Find out if reported interaction score for DEIQQLEQEIQELKQKIQELKWKNQELKQ [4H112-bN] is less than -0.5
Reply: YES

Query: Find out if reported interaction score for DEIQQLEQEIQELKQKNQELEWKIQELKQ [4H118-bN] is less than -0.5
Reply: NO

Query: Find out if reported interaction score for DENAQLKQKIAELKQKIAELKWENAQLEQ [4H1899-bA] is less than -0.5
Reply: YES

Query: Find out if reported interaction score for DENQQLKQKIQELEQKIQELEWKNQELEQ [4H1831-bN] is less than -0.5
Reply: NO

Query: Find out if reported interaction score for DKIQQLKQEIQELEQENQELKWEIQELKQ [4H2586-bN] is less than -0.5
Reply: NO

Query: Find out if reported interaction score for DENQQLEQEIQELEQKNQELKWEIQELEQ [4H1081-bN] is less than -0.5
Reply: YES

The measurements presented in this section are drawn from paper PMC10397247.
